- ASSAY COMMENT: Steady-state pharmacokinetics of gemcabene at 300, 600, 900 mg/day in FH patients
- Format: in vivo, human
- TEST CONTEXT: human, oral; 300 mg/day (Tablet D), Day 28 steady state, FH patients, plasma, mean, n=8
RECORDED ENDPOINT: Cmax (µg/mL)
Give the value, in units of µg/mL, as a plain number.

Could you share which Cmax value was measured for CC(C)(CCCCOCCCCC(C)(C)C(=O)O)C(=O)O ?
84.8

###

- ASSAY COMMENT: Steady-state pharmacokinetics of gemcabene at 300, 600, 900 mg/day in FH patients
- Type: in vivo, human
- TEST CONTEXT: human, plasma, oral; 600 mg/day (2× Tablet D), steady state, FH patients, median, n=8; read-out: Tmax
RECORDED ENDPOINT: Tmax
Include the unit after the number when you answer.

Could you share which Tmax value was measured for CC(C)(CCCCOCCCCC(C)(C)C(=O)O)C(=O)O [gemcabene] ?
1.5 h

The reported measurements were obtained from patent US20200148617A1.
